molecular target: VEGFR3 cytoplasmic domain (Homo sapiens, UniProt P35916); assay: VEGFR3 Biochemical assay (AlphaScreen); details: N-terminal GST-fusion enzyme, 500 μM ATP, 90 minutes at 30 degree Celsius (modified form: Hexa-His-fusion, 1 μM ATP)
Value Type: pIC50
The value called pIC50 is obtained by taking minus log10 of the concentration in mol/L.

Compound: CCC(C(N)=O)c1ccccc1CCc1nc(Nc2ccc(C3CCNCC3)cc2)ncc1C(F)(F)F (racemic)
Experimental System: VEGFR3 cytoplasmic domain (Homo sapiens, UniProt P35916)
pIC50: 7.04

Turning now to a further compound:
Recorded pIC50 (compound NC(=O)C1(c2ccccc2CCc2nc(Nc3ccc(C(F)(F)F)nc3)ncc2C(F)(F)F)CC1 ): 7.04

====

molecular target: VEGFR3 (Homo sapiens (Human), UniProt P35916); test: VEGFR3 Phospho ELISA assay; details: HMVEC-dLyAD cells, treated 1 hour, VEGFC stimulated; phospho VEGFR3 relative to Total VEGFR3
Sequence (P35916 25-1363): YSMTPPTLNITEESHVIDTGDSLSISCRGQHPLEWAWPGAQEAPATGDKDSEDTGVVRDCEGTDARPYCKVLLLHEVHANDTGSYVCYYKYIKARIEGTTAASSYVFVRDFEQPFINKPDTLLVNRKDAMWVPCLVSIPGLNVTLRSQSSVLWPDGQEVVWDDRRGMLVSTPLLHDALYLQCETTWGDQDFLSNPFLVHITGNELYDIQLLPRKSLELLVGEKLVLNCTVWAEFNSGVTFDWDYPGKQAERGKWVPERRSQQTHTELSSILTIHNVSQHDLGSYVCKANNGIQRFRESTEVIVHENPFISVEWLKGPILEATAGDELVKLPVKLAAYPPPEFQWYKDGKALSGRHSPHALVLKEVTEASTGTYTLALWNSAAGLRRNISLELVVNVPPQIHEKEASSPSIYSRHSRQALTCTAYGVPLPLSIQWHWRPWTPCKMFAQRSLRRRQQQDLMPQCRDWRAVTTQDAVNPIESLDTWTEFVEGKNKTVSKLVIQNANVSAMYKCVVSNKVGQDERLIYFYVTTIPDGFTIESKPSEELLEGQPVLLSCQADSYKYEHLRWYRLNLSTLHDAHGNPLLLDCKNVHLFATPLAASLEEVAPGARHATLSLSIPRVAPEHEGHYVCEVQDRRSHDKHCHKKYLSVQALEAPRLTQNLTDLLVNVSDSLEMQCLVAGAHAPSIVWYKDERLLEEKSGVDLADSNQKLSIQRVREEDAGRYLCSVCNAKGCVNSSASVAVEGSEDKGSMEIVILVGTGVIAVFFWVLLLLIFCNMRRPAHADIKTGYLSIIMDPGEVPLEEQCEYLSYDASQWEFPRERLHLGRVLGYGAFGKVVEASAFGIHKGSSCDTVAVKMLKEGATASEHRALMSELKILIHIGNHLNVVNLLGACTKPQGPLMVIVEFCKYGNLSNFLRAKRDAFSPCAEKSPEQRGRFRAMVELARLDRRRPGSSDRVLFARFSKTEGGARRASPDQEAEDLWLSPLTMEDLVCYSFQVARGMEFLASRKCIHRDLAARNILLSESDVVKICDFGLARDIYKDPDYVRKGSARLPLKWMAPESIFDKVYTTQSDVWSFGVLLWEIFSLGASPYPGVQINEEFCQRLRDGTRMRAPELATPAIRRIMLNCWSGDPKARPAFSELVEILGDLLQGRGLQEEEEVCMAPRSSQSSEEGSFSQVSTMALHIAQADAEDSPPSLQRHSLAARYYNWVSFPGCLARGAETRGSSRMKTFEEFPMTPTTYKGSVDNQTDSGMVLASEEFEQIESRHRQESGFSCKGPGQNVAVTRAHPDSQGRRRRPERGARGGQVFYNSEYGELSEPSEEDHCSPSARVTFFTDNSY
Value Type: pIC50
The value called pIC50 is obtained by taking minus log10 of the concentration in mol/L.

Recorded pIC50 (molecule CCC(C(N)=O)c1ccccc1CCc1nc(Nc2ccc(C3CCNCC3)cc2)ncc1C(F)(F)F (racemic) ): 6.76
